assay: physchem; details: 0.1N HCl, pH 1.2, 37 °C, pH 1.2, simulated gastric fluid, thermodynamic from solid
Measurement Type: solubility at 24 h (µg/mL)
Value expressed in µg/mL; do not type the unit.

Query block: Give the value of solubility at 24 h reported for the following: O=C(N[C@H](CN1CCCC1)[C@H](O)c1ccc(OC2CC2)c(Cl)c1)/C(=N/O)c1ccc2cc(Cl)ccc2c1 [Crystalline Form A of Compound 1]
Result block: 970

Provenance of the data: patent US20260048036A1
